- protocol.notes: PK profile, IV plasma concentration and PK parameters
- Assay type: in vivo
- condition.description: Balb/C nude, mouse, iv, 5 mg/kg, 30% Kolliphore EL with 1% poloxamar 407 in water, read-out: Vd
- Protocol: The PK profiles of compounds 148, 149, 150, 156 and 169 are shown below. Compound 156 was formulated in 30% Kolliphor EL (Cremophor EL) in water and compounds 148, 149, 150 and 169 were formulated in 30% Kolliphore EL with 1% poloxamar 407 in water. All compounds were dosed at 5 mg/kg. Blood samples were collected at various time points and analyzed using the method described above.
metric: Vd (L/kg)
Note: unit L/kg is implicit; provide only the numeric part.

### Prompt Query: Vd; subject: CCCC[C@H]1Cc2c([nH]c3ccccc23)[C@H](c2ccc(S(=O)(=O)NC3CC3)cc2F)N1C(=O)CCl [Compound 169]
### Response 2.39

### Prompt Query: Vd; subject: C[C@H]1Cc2c([nH]c3ccccc23)[C@H](c2ccc(NC34CC5CC(CC(C5)C3)C4)cc2)N1C(=O)CCl [Compound 150]
### Response 3.25

### Prompt Query: Vd; subject: C#CC(=O)N1[C@@H](CCCC)Cc2c([nH]c3ccccc23)[C@@H]1c1ccc(NC23CC4CC(CC(C4)C2)C3)cc1 [Compound 148]
### Response 2.39

### Prompt Query: Vd; subject: CCCC[C@H]1Cc2c([nH]c3ccccc23)[C@H](c2ccc(NC34CC5CC(CC(C5)C3)C4)cc2)N1C(=O)CCl [Compound 149]
### Response 2.34

----------
- protocol.notes: Whole blood stability, mouse
- Assay type: in vitro ADME
- condition.description: 60 min
I'd appreciate it if you could supply Whole Blood Stability % Remaining at 37° C. Mouse values for the items below.
Returns: string containing the number followed by the unit.

### Prompt Query: Whole Blood Stability % Remaining at 37° C. Mouse; subject: C[C@H]1Cc2c([nH]c3ccccc23)[C@H](c2ccc(C(=O)N[C@]34CC5C[C@H](C[C@H](C5)C3)C4)cc2)N1C(=O)CCl
### Response 90.1%

### Prompt Query: Whole Blood Stability % Remaining at 37° C. Mouse; subject: COC(=O)[C@H]1Cc2c([nH]c3ccccc23)[C@@H](c2ccc(OC(=O)C(C)(C)C)cc2)N1C(=O)CCl [Compound 13a]
### Response 0.0%

### Prompt Query: Whole Blood Stability % Remaining at 37° C. Mouse; subject: COC[C@H]1Cc2c([nH]c3ccccc23)[C@@H](c2ccc(C(=O)OC(C)(C)C)cc2)N1C(=O)CCl
### Response 0.0%

### Prompt Query: Whole Blood Stability % Remaining at 37° C. Mouse; subject: COC(=O)[C@H]1Cc2c([nH]c3ccccc23)[C@@H](c2ccc(C(=O)NCCN3CCOCC3)cc2)N1C(=O)CCl [Example 27a]
### Response 81.1%

### Prompt Query: Whole Blood Stability % Remaining at 37° C. Mouse; subject: COC(=O)[C@H]1Cc2c([nH]c3ccccc23)[C@@H](c2ccc(C(=O)N3CCC(O)CC3)cc2)N1C(=O)CCl [Compound 32a]
### Response 0.0%

### Prompt Query: Whole Blood Stability % Remaining at 37° C. Mouse; subject: C[C@H]1Cc2c([nH]c3ccccc23)[C@H](c2ccc(C3CCCC3)cc2)N1C(=O)CCl
### Response 87.7%

### Prompt Query: Whole Blood Stability % Remaining at 37° C. Mouse; subject: COC(=O)[C@H]1Cc2c([nH]c3ccccc23)[C@H](c2ccc(C(=O)N3CCC(O)CC3)cc2)N1C(=O)CCl
### Response 0.0%
